tested on: Oligodendrocyte progenitor cells (OPCs); assay: In vitro OPC differentiation assay, GPR17 expression (immunocytochemistry); conditions: 3 μM (10× concentration, final 0.3 μM); 72 hours; fold change over vehicle
measured-attribute: GPR17 Fold Induction (Over Vehicle; 3 μM)

CC(C)(C)OC(=O)N1CCN(c2cnn3cc(-c4ccncc4)ccc23)CC1 [Compound 218] = 3.46

I. Cn1cc(-c2ccc3c(N4CCN(c5ncc(CC6CCOCC6)cn5)CC4)cnn3c2)cn1 [Compound 68]
II. [2H]c1c([2H])c([2H])c(C([2H])([2H])c2cnc(N3CCN(c4cnn5cc(-c6cnn(C)c6)ccc45)CC3)nc2)c([2H])c1[2H] [Compound 82]
**Q:** Which of the two gives a bigger number for GPR17 Fold Induction (Over Vehicle; 3 μM): I or II ? # answer = label of selected item
**A:** II
(II: 6.50, I: 4.35)

A. Cn1cc(-c2ccc3c(N4CCN(c5ncc(Cc6ccccn6)cn5)CC4)cnn3c2)cn1 [Compound 250]
B. Cn1cc(-c2ccc3c(N4CCN(c5cnc(Cc6ccccc6)nc5)CC4)cnn3c2)cn1 [Compound 70]
**Q:** Which has the smaller recorded GPR17 Fold Induction (Over Vehicle; 3 μM), A or B ? # answer = label of selected item
**A:** B

I. CN(CCN(C)c1cnc2nc(C3CCOC3)ccn12)C(=O)OC(C)(C)C (stereo not shown) [Compound 98]
II. CC(C)(C)OC(=O)N1CCN(c2cnn3cc(-c4cnn(CCCN5CCOCC5)c4)ccc23)CC1 [Compound 233]
III. CC1CN(c2cnn3cc(-c4cnn(C)c4)ccc23)CCN1c1ncc(Cc2ccccc2)cn1 (stereo not shown) [Compound 143]
IV. CC(C)N(C)C(=O)N1CCN(c2cnn3cc(-c4cnn(C)c4)ccc23)CC1 [Compound 252]
**Q:** Sort (4 compounds) by GPR17 Fold Induction (Over Vehicle; 3 μM): min first. Write the labels in rank order as requested.
**A:** I, IV, III, II

P. CC(C)(C)OC(=O)N1CCCN(c2cnc3cc(-c4cccnc4)ncn23)CC1 [Compound 92]
Q. C[C@@H](OC(=O)N1CCN(c2cnn3cc(-c4cnn(C)c4)ccc23)CC1)c1ccc(C(F)(F)F)cc1 [Compound 313]
R. Cn1cc(-c2cc3ncc(N4CCN(C(=O)OC(C)(C)C)CC4)n3cn2)cn1 [Compound 83]
S. COCCn1cc(-c2ccn3c(N(C)CCN(C)C(=O)OC(C)(C)C)cnc3n2)cn1 [Compound 109]
**Q:** Sort (4 compounds) by GPR17 Fold Induction (Over Vehicle; 3 μM): min first. Write the labels in rank order as requested.
**A:** P, S, R, Q
(P: 0.81, S: 1.38, R: 6.49, Q: 10.56)

* * *

test system: GPR17+ cells (newly differentiated oligodendrocytes); assay: In vivo OPC differentiation, GPR17+ cells in brain; details: Mus musculus, po, 24 h, read-out: GPR17 Fold Induction (Over Vehicle)
Catalogue of fold induction at 3 mg/kg readings, one per entry.
The answer should be written as a number, with no unit following it.

For orientation, consider the following solved cases.
Cn1cc(-c2ccc3c(N4CCN(C(=O)OCc5ccc(C#N)cc5)CC4)cnn3c2)cn1 = 2.36
C[C@@H](OC(=O)N1CCN(c2cnn3cc(-c4cnn(C)c4)ccc23)CC1)c1ccc2ccccc2c1 = 1.53

**Q:** Given the molecule C[C@@H](OC(=O)N1CCN(c2cnn3cc(-c4cnn(C)c4)ccc23)CC1)c1cccc(F)c1 , what is its reported fold induction at 3 mg/kg?
**A:** 2.81

**Q:** Given the molecule Cn1cc(-c2ccc3c(N4CCN(C(=O)NCc5ccc(Cl)cc5)CC4)cnn3c2)cn1 , what is its reported fold induction at 3 mg/kg?
**A:** 5.31

**Q:** Given the molecule Cn1cc(-c2ccc3c(N4CCN(C(=O)O[C@@H](c5ccccc5)C(F)(F)F)CC4)cnn3c2)cn1 , what is its reported fold induction at 3 mg/kg?
**A:** 2.13

**Q:** Given the molecule C[C@@H](OC(=O)N1CCN(c2cnn3cc(-c4cnn(C)c4)ccc23)CC1)c1ccc(Cl)cc1 , what is its reported fold induction at 3 mg/kg?
**A:** 14.9

**Q:** Given the molecule CC(C)(C)OC(=O)N1CCN(c2cnn3cc(-c4cccnc4)ccc23)CC1 , what is its reported fold induction at 3 mg/kg?
**A:** 0.97

**Q:** Given the molecule C[C@@H](OC(=O)N1CCN(c2cnc3cc(-c4cnn(C)c4)cnn23)CC1)c1ccc(Cl)cc1 , what is its reported fold induction at 3 mg/kg?
**A:** 4.02
